Molecular target: T1, human CD200R1 with dual His-tags (human, UniProt Q8TD46 25-265)
T1 construct: Captured on the SPR chip by an anti-histidine antibody; also called hCD200R1-his; not shown: dual His-tags
T1 sequence (looked up): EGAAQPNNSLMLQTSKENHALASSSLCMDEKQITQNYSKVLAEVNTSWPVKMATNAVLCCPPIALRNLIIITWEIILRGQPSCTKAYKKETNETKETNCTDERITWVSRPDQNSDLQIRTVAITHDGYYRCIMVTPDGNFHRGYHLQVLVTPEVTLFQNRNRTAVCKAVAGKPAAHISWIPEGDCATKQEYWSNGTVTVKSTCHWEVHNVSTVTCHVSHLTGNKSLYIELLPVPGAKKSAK
Assay: SPR (Biacore CM5), His-tagged antigen captured by anti-histidine antibody, antibody as analyte, 1:1 Langmuir fit
Recorded measurements of koff, one per entry
OBSERVATION_TYPE: koff

# BINDER, EXPERIMENTAL_VALUE
data = [
    ("P001009v1 (antibody, V domains shown, P001009 with LC S52K and S94R (Kabat); also called P019001v1; P0001009v1) VH: EVQLLESGGGLVQPGGSLRLSCAASGFTFSSYDMSWVRQAPGKGLEWVSWISHGGGSIYYADSVKGRFTISRDNSKNTLYLQMNSLRAEDTAVYYCARDAPAYSAPLFDYWGQGTLVTVSS VL: QSVLTQPPSASGTPGQRVTISCSGSSSNIGNNAVNWYQQLPGTAPKLLIYYDKNRPSGVPDRFSGSKSGTSASLAISGLRSEDEADYYCAAWDDRLSGYVFGGGTKLTVL", "0.0001 s⁻¹"),
    ("P001009v4 (antibody, V domains shown, P001009 with LC N31K (Kabat); also called P019001v4) VH: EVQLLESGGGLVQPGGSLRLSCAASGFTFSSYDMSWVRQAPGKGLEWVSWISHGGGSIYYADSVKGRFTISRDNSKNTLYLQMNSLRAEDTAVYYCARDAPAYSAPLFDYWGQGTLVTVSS VL: QSVLTQPPSASGTPGQRVTISCSGSSSNIGNKAVNWYQQLPGTAPKLLIYYDSNRPSGVPDRFSGSKSGTSASLAISGLRSEDEADYYCAAWDDSLSGYVFGGGTKLTVL", "0.007 s⁻¹"),
    ("P001009 (IgG) (antibody, V domains shown, also called P001009 WT; P001009 wt) VH: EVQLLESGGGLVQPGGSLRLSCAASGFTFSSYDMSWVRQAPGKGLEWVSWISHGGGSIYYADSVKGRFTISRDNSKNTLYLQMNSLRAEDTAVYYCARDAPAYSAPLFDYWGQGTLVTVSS VL: QSVLTQPPSASGTPGQRVTISCSGSSSNIGNNAVNWYQQLPGTAPKLLIYYDSNRPSGVPDRFSGSKSGTSASLAISGLRSEDEADYYCAAWDDSLSGYVFGGGTKLTVL", "0.000134 s⁻¹"),
]
